Reference source: ChEMBL document CHEMBL3507680

assay: Human HepG2 cell viability assay in 384 well format; type: toxicity, cell-based; set-up: dose 125 nL, time 70.5 hour; concentration not given beside the values; conditions: HepG2 cells, read-out: Inhibition
# cytotoxicity at 70.5 h listing for each entry below
measured-property: cytotoxicity at 70.5 h (%)

# molecule, measured-property, measured-number
records = [
    ("Oc1nnc(-c2cccs2)c2sc(N3CCCCC3)nc12", "cytotoxicity at 70.5 h", -1.82),
    ("CC1CCN(C(=O)[C@H]2CC[C@@H]3[C@@H](CCN3Cc3nccs3)O2)CC1", "cytotoxicity at 70.5 h", 25.3),
    ("O=C(Cc1ccccn1)N1CC[C@]2(C[C@@H](Oc3ncccc3F)CO2)C1", "cytotoxicity at 70.5 h", 2.46),
    ("Cc1ccc(NC2CCN(C(=O)c3cnc(C)s3)CC2)nn1", "cytotoxicity at 70.5 h", -6.52),
    ("COc1cccn(CC(=O)N(C)CCCOc2c(C)cccc2C)c1=O", "cytotoxicity at 70.5 h", 29.5),
    ("Cc1c(COc2ccccc2)cccc1NC(=O)N1CC[C@H](O)C1", "cytotoxicity at 70.5 h", -1.47),
    ("Cc1nc2c(c(NCC(O)C(F)(F)F)n1)CCNCC2 (centres undefined)", "cytotoxicity at 70.5 h", 11.7),
    ("CC(C)SCCNC(=O)c1cccc2ccnn12", "cytotoxicity at 70.5 h", -9.35),
    ("CCS(=O)(=O)CC(=O)NC(C)c1ccccc1Oc1ccccc1 (centres undefined)", "cytotoxicity at 70.5 h", 2.99),
    ("CC(C)CN(c1cn[nH]c1)S(=O)(=O)c1cccc(C#N)c1", "cytotoxicity at 70.5 h", -6.94),
    ("COc1ccc(F)c(F)c1CN1CC(=O)N(c2ccccc2C)CC1C (centres undefined)", "cytotoxicity at 70.5 h", -11.4),
    ("CNc1nc(C)c(C(=O)N2CCCCC2CCc2ccc(O)cc2)s1 (centres undefined)", "cytotoxicity at 70.5 h", -8.49),
    ("Cc1cc(CNc2ccnn2CC(C)C)ccc1-n1cncn1", "cytotoxicity at 70.5 h", 7.96),
    ("CC(=O)N1CCCCC1c1nc(C)cc(-c2ccccc2C(=O)O)n1 (centres undefined)", "cytotoxicity at 70.5 h", -1.42),
    ("Cc1ccoc1C(=O)N1CCCC(CNS(C)(=O)=O)C1 (centres undefined)", "cytotoxicity at 70.5 h", 18),
    ("C/C(=C\\c1ccco1)CN(C)C(C)Cc1ccccn1 (centres undefined)", "cytotoxicity at 70.5 h", 16),
    ("O=C(C1CCC1)N1CC[C@]2(O)CCN(Cc3ncccn3)C[C@@H]2C1", "cytotoxicity at 70.5 h", -9.87),
    ("Cc1cc(C)c(CNC(=O)NCc2ccc3c(c2)CCC3)c(=O)[nH]1", "cytotoxicity at 70.5 h", -10.5),
    ("Cc1ccc(N2CCO[C@H]3CN(Cc4ccoc4)C[C@H]32)nn1", "cytotoxicity at 70.5 h", 6.75),
]

###

assay: Human HepG2 cell viability assay in 384 well format; format: toxicity, cell-based; parameters: dose 125 nL, time 70.5 hour; concentration not given beside the values; conditions: HepG2 cells, read-out: Inhibition
Collected cytotoxicity at 70.5 h values appear next to each entry.
measured-property: cytotoxicity at 70.5 h (%)

# compound, measured-property, measured-number
data = [
    ("CC(C)c1nc(C2CCCN2Cc2cc(=O)n(C)c(=O)n2C)no1 (configuration not stated)", "cytotoxicity at 70.5 h", -4.31),
    ("O=c1cc(CNCc2ccc3c(c2)OCO3)nc2ccc(Br)cn12", "cytotoxicity at 70.5 h", 0.0084),
    ("CN1CCN(C(=O)c2ncn3c2CN(C)S(=O)(=O)c2ccccc2-3)CC1", "cytotoxicity at 70.5 h", 1.76),
    ("CCn1c(CN2CCOC(Cn3cncn3)C2)nc2cc(F)ccc21 (configuration not stated)", "cytotoxicity at 70.5 h", 0.647),
    ("COc1ccc(C(C(=O)O)N(C)CCN2CCCC2)cc1F (configuration not stated)", "cytotoxicity at 70.5 h", -9.88),
    ("Cc1nc(C)n(C2CCCN(C(=O)c3cnc[nH]3)C2)n1 (configuration not stated)", "cytotoxicity at 70.5 h", -7.11),
    ("Cc1cccc2c1cnn2CCCNC(=O)CCCC(=O)O", "cytotoxicity at 70.5 h", -4.18),
    ("O=C1COC2(CCN(Cc3ccncc3)CC2)CN1", "cytotoxicity at 70.5 h", -11.9),
    ("Cc1sc2nc(CCN)nc(N3CC(N4CCCCC4)C3)c2c1C", "cytotoxicity at 70.5 h", 26),
    ("CCCC(NC(=O)c1ccccc1Br)c1nnn[nH]1 (configuration not stated)", "cytotoxicity at 70.5 h", -3.33),
    ("CCN(CC)S(=O)(=O)N1CCCC(c2ncc3c(n2)CCN(C)C3)C1 (configuration not stated)", "cytotoxicity at 70.5 h", 23.8),
    ("O=C(c1cnccn1)N1CCC2(CCN(Cc3ccsc3)CC2)CC1", "cytotoxicity at 70.5 h", -2.48),
    ("CC(=O)N1CCC(N2CCOC[C@H]2c2nc(-c3ccccc3)c[nH]2)CC1", "cytotoxicity at 70.5 h", -2.43),
    ("Cn1cc(-c2nc(C3CCN(CC4CC4)CC3)cc3c2ncn3C)cn1", "cytotoxicity at 70.5 h", -1.1),
    ("CN(C1CCc2ccccc2C1)S(C)(=O)=O (configuration not stated)", "cytotoxicity at 70.5 h", 0.716),
    ("Cc1ncsc1CCN(C)C(=O)C(c1cccnc1)N1CCOCC1 (configuration not stated)", "cytotoxicity at 70.5 h", -5.13),
    ("O=C(O)c1ccc(C2CCCN(C(=O)c3ccc[nH]3)C2)cc1 (configuration not stated)", "cytotoxicity at 70.5 h", -6.26),
    ("Cc1csc(C(=O)N2CCC(O)(CN3CCc4ccccc4C3)C2)c1 (configuration not stated)", "cytotoxicity at 70.5 h", -3.4),
    ("Cc1oncc1C(=O)N[C@@H]1CN(c2ncccn2)C[C@@H]2CCCO[C@@H]21", "cytotoxicity at 70.5 h", -10.7),
    ("CCC(=O)Nc1ccc2c(c1)C1(CCOCC1)CN2CCF", "cytotoxicity at 70.5 h", 16.7),
    ("CC1CN(Cc2ccccc2)CCCN1CCNS(C)(=O)=O (configuration not stated)", "cytotoxicity at 70.5 h", -0.345),
    ("COc1ncccc1NC(=O)N(Cc1ccc(C)o1)C1CC1", "cytotoxicity at 70.5 h", -9.49),
    ("Cc1nc(CN2CCCN(CC(=O)N(C)C(C)(C)C#N)CC2)no1", "cytotoxicity at 70.5 h", -10.4),
    ("CN(Cc1cn2c(n1)CN(C(=O)c1cccn1C)CC2)Cc1ccco1", "cytotoxicity at 70.5 h", 9.36),
    ("Cc1ccc(NC2(C(=O)NC(C)c3ncn[nH]3)CCCC2)cc1 (configuration not stated)", "cytotoxicity at 70.5 h", 6.6),
    ("CCCc1n[nH]c(C2CN(C(=O)c3ccc(C)[nH]c3=O)CCO2)n1 (configuration not stated)", "cytotoxicity at 70.5 h", 15.4),
    ("CCN(c1cccc(F)c1)S(=O)(=O)c1cc(C(=O)O)cc2c1CCC2", "cytotoxicity at 70.5 h", -9.22),
    ("Cc1ccc(NC2CCN(C(=O)c3cc(C)no3)CC2)nn1", "cytotoxicity at 70.5 h", 0.395),
    ("Cc1cnn(CC2CCCCN2CC(=O)Nc2nncs2)c1 (configuration not stated)", "cytotoxicity at 70.5 h", -1.03),
    ("Cc1cc(C(F)(F)F)nn1CCCNC(=O)C1CCCO1 (configuration not stated)", "cytotoxicity at 70.5 h", 16.3),
    ("CCc1nnc(CN2CCC(C3CCCCCN3C(C)=O)CC2)o1 (configuration not stated)", "cytotoxicity at 70.5 h", 8.88),
    ("CCc1cnc(CN(C(C)=O)C2CCN(CCc3ccccn3)C2)o1 (configuration not stated)", "cytotoxicity at 70.5 h", 1.82),
    ("O=C(NCc1cncc2c1CCN(Cc1ccc(F)cc1)C2)C1CC1", "cytotoxicity at 70.5 h", -8.1),
    ("CC(C)(C)c1ncc(C(=O)NCCNS(C)(=O)=O)s1", "cytotoxicity at 70.5 h", -7.98),
    ("COC[C@H]1CC[C@@H]2[C@@H](CCN2Cc2ccco2)O1", "cytotoxicity at 70.5 h", 20.4),
    ("CC(=O)Nc1cccc(C(=O)N(C)C(C)Cc2cc(C)ccn2)c1 (configuration not stated)", "cytotoxicity at 70.5 h", -2.97),
    ("Cc1ccc2c(c1)OC(C)CN2C(=O)CCc1cscn1 (configuration not stated)", "cytotoxicity at 70.5 h", 0.46),
]
